Target: T1, Human BCMA (B Cell Maturation Antigen) (human, UniProt Q02223 1-184)
T1 sequence: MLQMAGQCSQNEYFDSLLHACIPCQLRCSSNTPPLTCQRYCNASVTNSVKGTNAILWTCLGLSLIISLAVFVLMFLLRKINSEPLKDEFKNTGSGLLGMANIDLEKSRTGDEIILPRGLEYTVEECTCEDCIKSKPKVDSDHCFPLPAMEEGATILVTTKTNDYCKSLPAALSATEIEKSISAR
Assay: cell-based or functional assay
Measured EC50 of cell viability (Cell Titer-Glo), NCI-H929 (BCMA+) cells, 4-day assay, listed per entry.
Give a bare numeral; the unit nM is implied.

Previously resolved entries follow.
>  <binder>
anti-BCMA-AB1-Compound 3 (antibody, human IgG1, V domains shown, drug-linker Compound 3 on antibody cysteine thiols (C-lock conjugation; positions not stated)) VH: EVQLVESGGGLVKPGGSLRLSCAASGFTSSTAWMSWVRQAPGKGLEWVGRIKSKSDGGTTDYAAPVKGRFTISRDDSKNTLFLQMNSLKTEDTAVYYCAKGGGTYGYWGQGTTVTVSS VL: QSVLTQPASVSGSPGQSVTISCTGTSSAHGGHYYVSWYQQHPGKAPKLMIYDVSNRPSGVSNRFSGSKSGNTASLTISGLQAEDEADYYCGSYTSSGSYVFGTGTKLTVL

>  <number>
2.21

$$$$
>  <binder>
anti-BCMA-AB1-Compound 6 (antibody, human IgG1, V domains shown, drug-linker Compound 6 on antibody cysteine thiols (C-lock conjugation; positions not stated)) VH: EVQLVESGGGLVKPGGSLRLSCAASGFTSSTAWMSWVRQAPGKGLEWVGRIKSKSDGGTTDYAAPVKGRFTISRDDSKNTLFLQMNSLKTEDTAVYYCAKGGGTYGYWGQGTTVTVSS VL: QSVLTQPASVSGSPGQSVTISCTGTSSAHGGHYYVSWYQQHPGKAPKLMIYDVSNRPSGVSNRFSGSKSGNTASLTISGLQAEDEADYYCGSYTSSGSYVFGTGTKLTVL

>  <number>
2.38

$$$$

I'd like to know its EC50 of cell viability (Cell Titer-Glo), NCI-H929 (BCMA+) cells, 4-day assay. The binder in question is anti-BCMA-AB1-Compound 8 (antibody, human IgG1, V domains shown, drug-linker Compound 8 on antibody cysteine thiols (maleimide conjugation; positions not stated)) VH: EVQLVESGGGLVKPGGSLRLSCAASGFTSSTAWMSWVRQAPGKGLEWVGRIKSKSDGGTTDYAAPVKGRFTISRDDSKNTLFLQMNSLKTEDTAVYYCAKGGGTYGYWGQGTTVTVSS VL: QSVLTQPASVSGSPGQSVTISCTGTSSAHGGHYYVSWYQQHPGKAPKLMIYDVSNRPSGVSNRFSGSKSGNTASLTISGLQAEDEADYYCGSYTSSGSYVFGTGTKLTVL
5.15
